System: CAKI-1 renal
Method notes: NCI-60 one-dose screen, 48 h
Run conditions: 10 µM unless noted
About 83,000 compounds went through this panel and 20% of them were active in at least one assay; those are over-represented in the sample as a whole. The source made the active and inactive calls. Rule for the calls: active = growth percent below 10; inactive = the rest.
Parameter call: string, one of active, inactive

Req: Which outcome did this test record for the compound C#CCOc1ccc2ncnc(N3CCN(C(=O)CCl)CC3)c2c1 ?
Resp: inactive

Req: Try Cc1ccc(O)c(N2C(=NCc3ccco3)NS(=O)(=O)c3cnccc32)c1 next.
Resp: inactive

Req: Try C[n+]1ccccc1/C=C/c1ccc2cccc(O)c2n1 next.
Resp: inactive

Others:
Req: Which outcome did this test record for the compound Cn1cc(C(=O)c2nc(-c3c[nH]c4ccc(F)cc34)no2)c2cc(F)ccc21 ?
Resp: inactive

Req: Try Oc1cccc2ccc(N/N=C/c3cc(CN4CCOCC4)c(O)c4ncccc34)nc12 next.
Resp: inactive

Req: Try COc1ccc(/C=C2\Oc3cc(OCCCCN4CCCC4)ccc3C2=O)cc1 next.
Resp: inactive

Req: Try COc1cccc(-c2nc3sccn3c2-c2ccnc(NCCCNS(=O)(=O)c3cccc(Cl)c3)c2)c1 next.
Resp: inactive

Req: Try COc1cc(CNc2oc(-c3ccccc3)c(-c3ccccc3)c2C#N)cc(CN2CCN(C)CC2)c1O next.
Resp: inactive

Req: Try CS(=O)(=O)c1ccc(-n2nc(-c3ccc(Br)cc3)c3ccccc3c2=O)cc1 next.
Resp: inactive

Req: Try CC1CCNC(C)C1 (stereo not drawn) next.
Resp: inactive

Req: Try O=C1c2cccc3cccc(c23)C(=O)N1CCCCN1CCN(CCCCOc2ccc(-c3nc4ccc(N5CCOCC5)cc4[nH]3)cc2)CC1 next.
Resp: inactive

Req: Try CCOC(=O)c1c(C)oc2ncnc(N3CCN(C(=S)Nc4ccccc4)CC3)c12 next.
Resp: inactive

---

Test system: OVCAR-5 ovarian
Method notes: NCI-60 one-dose screen, 48 h (100 = growth as untreated, 0 = no growth, -100 = all killed)
Run conditions: 10 µM unless noted
The panel holds about 83,000 compounds, 20% with a hit somewhere; the sample as a whole holds those more often. Active and inactive are the calls of the source. Rule for the calls: active = growth percent below 10; inactive = the rest.
Measured growth, listed per entry for reference.

Field: example entries. Status: answers known.
Req: Suppose we examine the molecule O=C(CN1CCCCC1)Nc1ccc2oc(=O)ccc2c1 ; what growth value has been reported?
Resp: 122% (inactive)

Req: Try CC[C@]1(O)C[C@@H]2CN(CCc3c([nH]c4ccccc34)[C@@](C(=O)OC)(c3cc4c(cc3OC)N(C)[C@H]3[C@@](O)(C(N)=O)[C@H](O)[C@]5(CC)[C@@H]6C[C@@H]6CN6CC[C@]43[C@@H]65)C2)C1 next.
Resp: 52.2% (inactive)

Req: Try COc1ccc(C(=S)N2CCN(c3cccc(Cl)c3)CC2)cc1 next.
Resp: 98.5% (inactive)

Req: Try Brc1ccc(-c2csc(Nc3ccccn3)n2)cc1 next.
Resp: 92.4% (inactive)

Req: Try COC(=O)[C@@H]1CCCN1C(=O)[C@@H]1CCCN1C(=O)[C@H](Cc1ccccc1)NC(=S)Nc1cc(C(F)(F)F)cc(C(F)(F)F)c1 next.
Resp: 88.4% (inactive)

Req: Try Oc1ccccc1-c1nnc(CNc2ccc(Cl)cc2)o1 next.
Resp: 64% (inactive)

Req: Try N#Cc1c(-c2ccc(Cl)cc2)nc(N/N=C/c2cccc(Br)c2)nc1N1CCOCC1 next.
Resp: 82% (inactive)

Req: Try O=C(N=Nc1c(O)[nH]c2ccccc12)c1cc(-c2ccccc2)on1 next.
Resp: 99.8% (inactive)

Now look at this one.
Req: Suppose we examine the molecule COc1ccc2nc(NC(=O)CSc3nnc4n3S(=O)(=O)c3ccccc3N4c3ccccc3)sc2c1 ; what growth value has been reported?
Resp: 94.2% (inactive)
